Data provenance is ChEMBL document CHEMBL1128914.

# experimentalTarget: D(1A) dopamine receptor (Rattus norvegicus, UniProt P18901)
# Sequence (P18901 whole entry): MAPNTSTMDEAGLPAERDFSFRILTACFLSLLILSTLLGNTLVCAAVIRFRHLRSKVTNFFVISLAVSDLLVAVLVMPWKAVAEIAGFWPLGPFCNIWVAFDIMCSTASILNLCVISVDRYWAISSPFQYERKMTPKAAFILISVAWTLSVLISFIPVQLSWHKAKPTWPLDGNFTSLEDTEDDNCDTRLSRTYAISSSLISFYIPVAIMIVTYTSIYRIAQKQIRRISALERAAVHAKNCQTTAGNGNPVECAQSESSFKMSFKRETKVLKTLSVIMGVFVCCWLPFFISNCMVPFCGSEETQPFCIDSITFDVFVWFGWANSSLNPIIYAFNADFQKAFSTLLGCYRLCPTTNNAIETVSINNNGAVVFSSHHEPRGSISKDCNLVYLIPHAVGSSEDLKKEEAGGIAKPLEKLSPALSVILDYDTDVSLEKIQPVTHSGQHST
# test: Compound was tested for binding affinity against Dopamine receptor D1 using 1 nM [3H]SCH-23390 as the radioligand.
quantityKind: IC50 (nM)

1) CN1CCc2cc(Cl)c(O)cc2C(c2cccc(N=C=S)c2)C1 (stereo unspecified) :: 2.13

###

# experimentalTarget: D(2) dopamine receptor (Rattus norvegicus)
# Sequence (P61169 whole entry): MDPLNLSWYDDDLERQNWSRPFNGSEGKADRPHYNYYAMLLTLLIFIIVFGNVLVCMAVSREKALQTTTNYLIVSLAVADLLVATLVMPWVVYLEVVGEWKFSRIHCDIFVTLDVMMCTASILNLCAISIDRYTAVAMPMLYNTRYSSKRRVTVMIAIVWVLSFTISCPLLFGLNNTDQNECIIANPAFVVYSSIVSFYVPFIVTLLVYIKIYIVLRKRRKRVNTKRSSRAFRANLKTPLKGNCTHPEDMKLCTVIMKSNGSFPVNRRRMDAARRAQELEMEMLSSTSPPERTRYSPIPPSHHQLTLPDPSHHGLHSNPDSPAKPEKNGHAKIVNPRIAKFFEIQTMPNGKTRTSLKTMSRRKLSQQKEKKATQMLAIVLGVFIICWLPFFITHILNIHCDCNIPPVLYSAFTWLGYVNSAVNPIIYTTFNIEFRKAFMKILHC
# test: Compound was tested for binding affinity against Dopamine receptor D2 using 10 nM [3H]N-methyl-spiperone as the radioligand.
quantityKind: IC50 (nM)

1) CN1CCc2cc(Cl)c(O)cc2C(c2cccc(N=C=S)c2)C1 (stereo unspecified) :: 978
